TEST_SYSTEM: HGFR (Homo sapiens)
Construct: purchased Upstate 14-526
Sequence (P08581 974-1390 limits assumed): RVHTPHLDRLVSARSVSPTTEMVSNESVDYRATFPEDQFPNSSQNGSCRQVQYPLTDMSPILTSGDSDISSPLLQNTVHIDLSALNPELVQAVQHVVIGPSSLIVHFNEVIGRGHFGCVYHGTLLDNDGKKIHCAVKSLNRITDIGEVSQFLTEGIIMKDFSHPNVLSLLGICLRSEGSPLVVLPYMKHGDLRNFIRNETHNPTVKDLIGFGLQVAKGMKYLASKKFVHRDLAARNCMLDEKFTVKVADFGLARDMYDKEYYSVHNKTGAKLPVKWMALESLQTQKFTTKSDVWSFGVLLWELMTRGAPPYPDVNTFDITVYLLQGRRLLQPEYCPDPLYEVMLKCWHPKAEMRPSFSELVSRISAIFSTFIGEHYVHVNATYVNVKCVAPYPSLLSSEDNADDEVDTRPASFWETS
ASSAY_COMMENT: HGFR continuous-coupled spectrophotometric assay
Format: biochemical
REPORTED_CONDITIONS: at 1 pM; Table 7, library procedure 42; read-out: % Inhibition (percent c-MET inhibition)
# binarize inhibition at 1 pM: threshold 20% inclusive, high side t, low side f

>>> group_label("COC(=O)Nc1cc(COc2cc(-c3ccc(C(=O)N4CCC(N5CCCC5)CC4)cc3)cnc2N)on1")
"f"
>>> group_label("Nc1ncc(-c2ccc(C(=O)N3CCC(N4CCCC4)CC3)cc2)cc1OCc1cc(F)ccc1C(F)(F)F")
"t"
>>> group_label("Nc1ncc(-c2ccc(C(=O)N3CCC(N4CCCC4)CC3)cc2)cc1OCc1ccccc1-c1ccccc1")
"t"
>>> group_label("Nc1ncc(-c2ccc(C(=O)N3CCC(N4CCCC4)CC3)cc2)cc1OCc1nc(NCCO)c2ccccc2n1")
"f"

Input line: Identify whether the reported inhibition at 1 pM of the following molecule is 20% or greater: Nc1ncc(-c2ccc(C(=O)N3CCC(N4CCCC4)CC3)cc2)cc1OCc1cc(Cl)ccc1Cl
Output line: t

Input line: Does inhibition at 1 pM meet or surpass 20% for Nc1ncc(-c2ccc(C(=O)N3CCC(N4CCCC4)CC3)cc2)cc1OCc1ccccc1CS(=O)(=O)c1ccccc1 ?
Output line: f

Input line: Check this molecule for inhibition at 1 pM at or above 20%: CC(C)(C)c1ccc(-c2noc(COc3cc(-c4ccc(C(=O)N5CCC(N6CCCC6)CC5)cc4)cnc3N)n2)cc1
Output line: t

Input line: In plain terms: is recorded inhibition at 1 pM at least 20% for Nc1ncc(-c2ccc(C(=O)N3CCC(N4CCCC4)CC3)cc2)cc1OCc1cccc(C(=O)NCc2cccnc2)c1 ?
Output line: f

Input line: Does the molecule CC(Oc1cc(-c2ccc(C(=O)N3CCC(N4CCCC4)CC3)cc2)cnc1N)c1ccccc1C(F)(F)F (stereo not shown) have recorded inhibition at 1 pM that is 20% or more?
Output line: t

Input line: Hi team, for Nc1ncc(-c2ccc(C(=O)N3CCC(N4CCCC4)CC3)cc2)cc1OCc1ccc(C(=O)NCc2cccnc2)cc1 , is the recorded inhibition at 1 pM at or above 20%?
Output line: f

Input line: Kindly determine if inhibition at 1 pM recorded for Cc1noc(C)c1-c1nc(COc2cc(-c3ccc(C(=O)N4CCC(N5CCCC5)CC4)cc3)cnc2N)no1 is above or exactly 20%.
Output line: f

Input line: Would you say Nc1ncc(-c2ccc(C(=O)N3CCC(N4CCCC4)CC3)cc2)cc1OCc1c(F)ccc(F)c1F shows inhibition at 1 pM at minimum 20%?
Output line: t

Input line: Check if inhibition at 1 pM >= 20% (inclusive). Item: CNC(=O)c1ccc(OC)c(-c2noc(COc3cc(-c4ccc(C(=O)N5CCC(N6CCCC6)CC5)cc4)cnc3N)n2)c1
Output line: f

Input line: Answer whether inhibition at 1 pM of Nc1ncc(-c2ccc(C(=O)N3CCC(N4CCCC4)CC3)cc2)cc1OCc1ccc(Cl)s1 is greater than or equal to 20%.
Output line: f

Input line: Does the molecule Nc1ncc(-c2ccc(C(=O)N3CCC(N4CCCC4)CC3)cc2)cc1OCc1nc2ncc(Cl)cc2[nH]1 have recorded inhibition at 1 pM that is 20% or more?
Output line: f

Input line: Record CCN1CCCC1CNC(=O)c1ccc(COc2cc(-c3ccc(C(=O)N4CCC(N5CCCC5)CC4)cc3)cnc2N)cc1 (stereo not shown) ; criterion: inhibition at 1 pM no lower than 20%. Met?
Output line: f

Data origin: patent US20050009840A1
